FYI, the data here is from patent US4327097A.

System: Proteus vulgaris
assay.procedure: MIC against clinical isolates
Type: cell-based
condition.details: Table 6-5, clinical isolate; unit assumed
So I've got a bunch of compounds here, and I need their MIC Proteus vulgaris values.
// units = µg/mL; emit number, no label

Req: Dear colleague, I am looking for the recorded MIC Proteus vulgaris of the following compound: CCN1CCN(C(=O)NC(C(=O)NC2C(=O)N3C(C(=O)O)=C(CSc4nncs4)CSC23)c2ccc(O)cc2)C(=O)C1=O (single isomer, unassigned)
Resp: 0.39

Req: Dear colleague, I am looking for the recorded MIC Proteus vulgaris of the following compound: CCN1CCN(C(=O)NC(C(=O)NC2C(=O)N3C(C(=O)O)=C(CSc4nnnn4C)CSC23)c2ccc(O)cc2)C(=O)C1=O (stereo not shown)
Resp: 0.39

Req: Dear colleague, I am looking for the recorded MIC Proteus vulgaris of the following compound: CCN1CCN(C(=O)NC(C(=O)NC2C(=O)N3C(C(=O)O)=C(CSc4nnnn4CC)CSC23)c2ccc(O)cc2)C(=O)C1=O (single isomer, unassigned)
Resp: 0.39

Req: Dear colleague, I am looking for the recorded MIC Proteus vulgaris of the following compound: CCCCN1CCN(C(=O)NC(C(=O)NC2C(=O)N3C(C(=O)O)=C(CSc4nnnn4C)CSC23)c2ccccc2)C(=O)C1=O (single isomer, unassigned)
Resp: 0.78

Req: Dear colleague, I am looking for the recorded MIC Proteus vulgaris of the following compound: CCCCCCCCN1CCN(C(=O)N[C@@H](C(=O)NC2C(=O)N3C(C(=O)O)=C(CSc4nnnn4C)CSC23)c2ccccc2)C(=O)C1=O (single isomer, unassigned)
Resp: 0.78

Req: Dear colleague, I am looking for the recorded MIC Proteus vulgaris of the following compound: Cn1nnnc1SCC1=C(C(=O)O)N2C(=O)C(NC(=O)C(NC(=O)N3CCN(CCO)C(=O)C3=O)c3ccccc3)C2SC1 (single isomer, unassigned)
Resp: 0.78

Req: Dear colleague, I am looking for the recorded MIC Proteus vulgaris of the following compound: CCN1CCN(C(=O)NC(C(=O)NC2C(=O)N3C(C(=O)O)=C(CSc4nnnn4CC)CSC23)c2ccccc2)C(=O)C1=O (single isomer, unassigned)
Resp: 0.78

* * *

Tested on: β-lactamase, Pseudomonas aeruginosa GN 238
assay.procedure: Resistant activity against β-lactamase, iodometric assay
Assay type: biochemical
condition.details: β-lactamase from Pseudomonas aeruginosa GN 238; Potassium Penicillin G = 100
So I've got a bunch of compounds here, and I need their Relative activity (%), resistant activity against β-lactamase values.
Numeric answer plus unit only.

Req: Dear colleague, I am looking for the recorded Relative activity (%), resistant activity against β-lactamase of the following compound: CN1CCN(C(=O)NC(C(=O)NC2C(=O)N3C2SC(C)(C)C3C(=O)O)c2ccccc2)C(=O)C1=O (single isomer, unassigned) [Compound 37]
Resp: 15%

Req: Dear colleague, I am looking for the recorded Relative activity (%), resistant activity against β-lactamase of the following compound: CCCCCCCCN1CCN(C(=O)NC(C(=O)NC2C(=O)N3C2SC(C)(C)C3C(=O)O)c2ccccc2)C(=O)C1=O (single isomer, unassigned) [Compound No. 47]
Resp: 1%

Req: Dear colleague, I am looking for the recorded Relative activity (%), resistant activity against β-lactamase of the following compound: CCCN1CCN(C(=O)NC(C(=O)NC2C(=O)N3C2SC(C)(C)C3C(=O)O)c2ccccc2)C(=O)C1=O (single isomer, unassigned) [Compound 38]
Resp: 15%

Req: Dear colleague, I am looking for the recorded Relative activity (%), resistant activity against β-lactamase of the following compound: CCN1CCN(C(=O)N[C@@H](C(=O)N[C@@H]2C(=O)N3[C@@H]2SC(C)(C)[C@@H]3C(=O)O)c2ccccc2)C(=O)C1=O [Compound 36]
Resp: 14%

Req: Dear colleague, I am looking for the recorded Relative activity (%), resistant activity against β-lactamase of the following compound: CCCCCN1CCN(C(=O)NC(C(=O)NC2C(=O)N3C2SC(C)(C)C3C(=O)O)c2ccccc2)C(=O)C1=O (single isomer, unassigned) [Compound 45]
Resp: 16%

Req: Dear colleague, I am looking for the recorded Relative activity (%), resistant activity against β-lactamase of the following compound: CCCCCCN1CCN(C(=O)NC(C(=O)NC2C(=O)N3C2SC(C)(C)C3C(=O)O)c2ccccc2)C(=O)C1=O (single isomer, unassigned) [Compound 46]
Resp: 12%

* * *

So I've got a bunch of molecules here, and I need their MIC Escherichia coli K-3 values.
Tested on: Escherichia coli
assay.procedure: MIC against clinical isolates
Format: cell-based
condition.details: Table 5-2, clinical isolate; unit assumed
// units = µg/mL; emit number, no label

Req: Dear colleague, I am looking for the recorded MIC Escherichia coli K-3 of the following molecule: CCCCCCN1CCN(C(=O)NC(C(=O)NC2C(=O)N3C2SC(C)(C)C3C(=O)O)c2ccccc2)C(=O)C1=O (single isomer, unassigned)
Resp: 50

Req: Dear colleague, I am looking for the recorded MIC Escherichia coli K-3 of the following molecule: CCCCCN1CCN(C(=O)NC(C(=O)NC2C(=O)N3C2SC(C)(C)C3C(=O)O)c2ccccc2)C(=O)C1=O (single isomer, unassigned)
Resp: 200

Req: Dear colleague, I am looking for the recorded MIC Escherichia coli K-3 of the following molecule: CCCCCCCCN1CCN(C(=O)NC(C(=O)NC2C(=O)N3C2SC(C)(C)C3C(=O)O)c2ccccc2)C(=O)C1=O (single isomer, unassigned)
Resp: 100

* * *

System: Pseudomonas aeruginosa
assay.procedure: MIC against clinical isolates
Type: cell-based
condition.details: Table 5-3, clinical isolate; unit assumed
measured.metric: MIC Pseudomonas aeruginosa GN 82 (µg/mL)
// units = µg/mL; emit number, no label

Req: Dear colleague, I am looking for the recorded MIC Pseudomonas aeruginosa GN 82 of the following compound: CCCCCCN1CCN(C(=O)NC(C(=O)NC2C(=O)N3C2SC(C)(C)C3C(=O)O)c2ccccc2)C(=O)C1=O (single isomer, unassigned) [Compound 46]
Resp: 6.25

Req: Dear colleague, I am looking for the recorded MIC Pseudomonas aeruginosa GN 82 of the following compound: CN1CCN(C(=O)NC(C(=O)NC2C(=O)N3C2SC(C)(C)C3C(=O)O)c2ccccc2)C(=O)C1=O (single isomer, unassigned) [Compound 37]
Resp: 6.25

Req: Dear colleague, I am looking for the recorded MIC Pseudomonas aeruginosa GN 82 of the following compound: CCN1CCN(C(=O)N[C@@H](C(=O)N[C@@H]2C(=O)N3[C@@H]2SC(C)(C)[C@@H]3C(=O)O)c2ccccc2)C(=O)C1=O [Compound 36]
Resp: 6.25

Req: Dear colleague, I am looking for the recorded MIC Pseudomonas aeruginosa GN 82 of the following compound: CCCN1CCN(C(=O)NC(C(=O)NC2C(=O)N3C2SC(C)(C)C3C(=O)O)c2ccccc2)C(=O)C1=O (single isomer, unassigned) [Compound 38]
Resp: 3.13

Req: Dear colleague, I am looking for the recorded MIC Pseudomonas aeruginosa GN 82 of the following compound: CC(C)N1CCN(C(=O)NC(C(=O)NC2C(=O)N3C2SC(C)(C)C3C(=O)O)c2ccccc2)C(=O)C1=O (single isomer, unassigned) [Compound 40]
Resp: 6.25

Req: Dear colleague, I am looking for the recorded MIC Pseudomonas aeruginosa GN 82 of the following compound: CCCCCCCCN1CCN(C(=O)N[C@@H](C(=O)N[C@@H]2C(=O)N3[C@@H]2SC(C)(C)[C@@H]3C(=O)O)c2ccccc2)C(=O)C1 [Compound 16]
Resp: 6.25

* * *

Tested on: Pseudomonas aeruginosa I.F.O.
assay.procedure: MIC, plate method, standard strains
Type: cell-based
condition.details: Table 4, standard strain; unit assumed
Procedure: The minimum inhibitory concentration (MIC) was determined by the plate method disclosed in "Chemotherapy" (Japan), Vol. 16, (1968), pages 98-99. The culture medium used was a Heart infusion agar (pH 7.4). The number of the cells per plate used in the inoculum was 10^4 (10^6 cells/ml).
measured.metric: MIC Pseudomonas aeruginosa I.F.O. (µg/mL)
// units = µg/mL; emit number, no label

Req: Dear colleague, I am looking for the recorded MIC Pseudomonas aeruginosa I.F.O. of the following molecule: CCN1CCN(C(=O)NC(C(=O)NC2C(=O)N3C(C(=O)O)=C(CSc4nncs4)CSC23)c2ccc(O)cc2)C(=O)C1=O (single isomer, unassigned)
Resp: 3.13

Req: Dear colleague, I am looking for the recorded MIC Pseudomonas aeruginosa I.F.O. of the following molecule: CCN1CCN(C(=O)NC(C(=O)NC2C(=O)N3C(C(=O)O)=C(CSc4nnnn4C)CSC23)c2ccc(O)cc2)C(=O)C1=O (centres unmarked)
Resp: 6.25

Req: Dear colleague, I am looking for the recorded MIC Pseudomonas aeruginosa I.F.O. of the following molecule: Cn1nnnc1SCC1=C(C(=O)O)N2C(=O)C(NC(=O)C(NC(=O)N3CCN(CCO)C(=O)C3=O)c3ccc(O)cc3)C2SC1 (single isomer, unassigned)
Resp: 25

Req: Dear colleague, I am looking for the recorded MIC Pseudomonas aeruginosa I.F.O. of the following molecule: CCN1CCN(C(=O)NC(C(=O)NC2C(=O)N3C(C(=O)O)=C(COC(N)=O)CSC23)c2ccc(O)cc2)C(=O)C1=O (single isomer, unassigned)
Resp: 25

Req: Dear colleague, I am looking for the recorded MIC Pseudomonas aeruginosa I.F.O. of the following molecule: CCCCCCCCN1CCN(C(=O)N[C@@H](C(=O)NC2C(=O)N3C(C(=O)O)=C(CSc4nnnn4C)CSC23)c2ccccc2)C(=O)C1=O (single isomer, unassigned)
Resp: 12.5
